- Protocol: Log P by HPLC on reversed phase columns (EEC directive 79/831 Annex V.A8; methods [a], [b], [c])
- Format: physicochemical
- Conditions Used: HPLC on reversed phase column, method [a]
Reported Property: chromatographic logP
Just the number.

C#CCOc1ccc(C(O)(Cn2cncc2C#N)C2(F)CC2)c(F)c1 (centres unmarked) [I-506]    2.23

Now take the following compound into account.
The compound listed as N#Cc1cncn1CC(O)(C#CC1CCCCC1)C1(Cl)CC1 (centres unmarked) [I-542] has a reported chromatographic logP of 2.96

====

- Protocol: Log P by HPLC on reversed phase columns (EEC directive 79/831 Annex V.A8; methods [a], [b], [c])
- Assay type: physicochemical
Reported Property: LogP

The following compounds have reported results that may help.
CC(O)(Cn1cncc1C#N)c1cnc(Oc2ccc(Cl)nc2)cc1C(F)(F)F (stereo not shown)    2.43^[a]
OC(Cn1cncc1Cl)c1cnc(Oc2ccc(Cl)cc2)cc1C(F)(F)F (stereo not shown)    2.55^[a]
N#Cc1cncn1CC(O)(c1cc(F)c(Cl)cc1Br)C1(F)CC1 (stereo not shown)    2.65^[a]
N#Cc1cncn1CC(O)(c1cc(Cl)c(F)cc1F)C1(F)CC1 (stereo not shown)    2.42^[a]
CC(C)(C)CC(O)(Cn1cncc1C#N)c1ccc(Br)cc1Cl (stereo not shown)    2.83^[a]
N#Cc1cncn1CC(O)c1ccc(Oc2ccccc2)cc1Cl (stereo not shown)    2.70^[a]
N#Cc1cncn1CC(O)(CC1CC1)C1(F)CC1 (stereo not shown)    1.99^[a]
CC(O)(Cn1cncc1Cl)c1ccc(Oc2ccc(Br)cc2)cc1C(F)(F)F (stereo not shown)    2.90^[a]
COC(Cn1cncc1Cl)c1ccc(Oc2ccc(Br)cc2)cc1Br (stereo not shown)    3.76^[a]

Now take the following compound into account.
The compound listed as Cc1ccc(C#CC(O)(Cn2cncc2C#N)C2(F)CC2)cc1 (stereo not shown) has a reported LogP of 2.52^[a]
